Biological target: IDH1 R132C (Homo sapiens, UniProt O75874, R132C)
Sequence (O75874 whole entry R132C): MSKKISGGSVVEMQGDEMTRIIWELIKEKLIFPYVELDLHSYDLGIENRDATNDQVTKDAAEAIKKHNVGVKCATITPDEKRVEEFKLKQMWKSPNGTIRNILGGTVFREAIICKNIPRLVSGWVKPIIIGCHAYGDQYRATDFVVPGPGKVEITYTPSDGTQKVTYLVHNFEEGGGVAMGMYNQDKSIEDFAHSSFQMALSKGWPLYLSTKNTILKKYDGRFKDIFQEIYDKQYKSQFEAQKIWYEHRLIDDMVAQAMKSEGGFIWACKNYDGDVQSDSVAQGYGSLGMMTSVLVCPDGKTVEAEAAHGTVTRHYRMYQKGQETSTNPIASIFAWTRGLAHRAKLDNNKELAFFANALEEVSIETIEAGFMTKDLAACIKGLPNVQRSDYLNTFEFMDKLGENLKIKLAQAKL
Experiment: IDH1 R132C enzymatic assay (NADPH depletion coupled to diaphorase/resazurin)
Assay type: biochemical
Conditions: IDH1 R132C enzymatic inhibition, IC50 class
property.name: IC50

> print(dat)
                                   compound      result.value
1  CCc1cccc(CC)c1-n1c(C=C(C)C)c(C(=O)N2CCNCC2)cc(-c2ccn(-c3ccc(Cl)cc3)n2)c1=O [Compound 349]          < 300 nM
2  Cc1cc(-n2c3c(cc(-c4nc(-c5ccc(Cl)cc5)cs4)c2=O)C(=O)CC(C)(C)C3)n(C)n1 [Compound 72]   1000 to 5000 nM
3  CCc1cccc(CC)c1-n1c2c(cc(-c3nc(C4=CCNCC4)c(C)s3)c1=O)C(=O)CC(C)(C)C2 [Compound 298]  5000 to 20000 nM

Q) Find the recorded IC50 belonging to CCc1cccc(CC)c1-n1c(C(C)C)c(C(=O)N2CCN[C@@H](C(=O)O)C2)cc(-c2nc(-c3ccc(Cl)cc3)cs2)c1=O [Compound 28] and report it.
A) < 300 nM

Q) Which value of IC50 has been reported for COc1ccc(OC)c(-n2c3c(cc(-c4nc(-c5ccc(Cl)cc5)cs4)c2=O)C(=O)CNC3)c1 [Compound 280] in the records?
A) 5000 to 20000 nM

Q) Param item = CCc1cccc(CC)c1-n1c(CC(C)C)c(C(=O)N2CCN[C@@H](C)C2)cc(-c2nc(-c3ccc(Cl)cc3)cs2)c1=O [Compound 141] ; retrieve measured IC50.
A) < 300 nM

Q) Consider the compound CCc1ccc(N(C)C)cc1-n1c(C=C(C)C)c(C(=O)N2CCNCC2)cc(-c2nc(-c3ccc(Cl)cc3)cs2)c1=O [Compound 333] and give its measured IC50.
A) < 300 nM

Q) Returns the measured IC50 for the input compound. Input: CCc1cccc(CC)c1-n1c(CC(C)C)c(C(=O)O)cc(-c2nc(-c3ccc(Cl)cc3)cs2)c1=O [Compound 14]
A) 5000 to 20000 nM

Q) What value of measured IC50 is listed for COc1ccc(OC)c(-n2c3c(cc(-c4ncc(-c5ccc(Cl)cc5)s4)c2=O)C(=O)CC(C)(C)C3)c1 [Compound 266] ?
A) > 20000 nM

Q) Sample CCc1cccc(OC)c1-n1c(C=C(C)C)c(C(=O)N2CCNCC2)cc(-c2nc(-c3ccc(Cl)cc3)cs2)c1=O [Compound 642] — what was its IC50?
A) < 300 nM

Q) Give its IC50 value. Item: CC1(C)CC(=O)c2cc(-c3nc(-c4ccc(Cl)cc4)cs3)c(=O)n(-c3cc(C(F)(F)F)ccc3N3CCOCC3)c2C1 [Compound 92]
A) 1000 to 5000 nM

Q) What does the record list as IC50 for CCc1cccc(CC)c1-n1c(C(C)C)c(C(=O)N2CCN[C@H](C(=O)O)C2)cc(-c2nc(-c3ccc(Cl)cc3)cs2)c1=O [Compound 264] ?
A) < 300 nM

Q) Any idea what IC50 was measured for CCc1cccc(CC)c1-n1c(CC(C)C)c(C(=O)N2CCC(CO)CC2)cc(-c2nc(-c3ccc(Cl)cc3)cs2)c1=O [Compound 94] ?
A) < 300 nM

Q) Requested read-out: IC50. Entry: COc1ccccc1-n1c2c(cc(-c3nc(-c4ccc(Cl)cc4)cs3)c1=O)C(=O)CC(C)(C)C2 [Compound 12]
A) 1000 to 5000 nM

Q) Requested field: IC50. Item: CCc1cccc(CC)c1-n1c(CC2CCCC2)c(C(=O)N2CCNCC2)cc(-c2nc(-c3ccc(Cl)cc3)cs2)c1=O [Compound 622]
A) < 300 nM

Q) # lookup: IC50 of CCc1cccc(F)c1-n1c(C=C(C)C)c(C(=O)N2CCNCC2)cc(-c2nc(-c3ccc(Cl)cc3)cs2)c1=O [Compound 655]
A) < 300 nM

Q) Give its IC50 value. Item: CCc1cccc(CC)c1-n1c(C=C(C)C)c(C(=O)N2CCCC(N)C2)cc(-c2nc(-c3ccc(Cl)cc3)cs2)c1=O (stereo not drawn) [Compound 629]
A) < 300 nM

Q) # lookup: IC50 of CCc1cccc(CC)c1-n1c(C)c(C(=O)N2CCNC(C(=O)O)C2)cc(-c2nc(-c3ccc(Cl)cc3)cs2)c1=O (stereo not drawn) [Compound 198]
A) 300 to 1000 nM

Q) Using the record for COc1ccc(-n2cccc(-c3nc(-c4ccc(Cl)cc4)cs3)c2=O)c(OC)c1 [Compound 165] , report its IC50.
A) > 20000 nM

Q) IC50 for Cc1ccc([N+](=O)[O-])cc1-n1c2c(cc(-c3nc(-c4ccc(Cl)cc4)cs3)c1=O)C(=O)CC(C)(C)C2 [Compound 182] ?
A) 1000 to 5000 nM

Q) What does the data say about its IC50? Entry: CCc1cccc(CC)c1-n1c(CC(C)C)c(C(=O)N2CC(=O)N[C@H](C(=O)O)C2)cc(-c2nc(-c3ccc(Cl)cc3)cs2)c1=O [Compound 193]
A) 300 to 1000 nM

Q) Consider the compound CC1(C)CC(=O)c2cc(-c3nc(-c4ccc(Cl)cc4)cs3)c(=O)n(-c3sccc3C(N)=O)c2C1 [Compound 369] and give its measured IC50.
A) 5000 to 20000 nM

Q) So what's the measured IC50 for this one? CCc1cccc(CC)c1-n1c2c(cc(-c3nc(-c4ccc(OC)cc4)cs3)c1=O)C(=O)CC(C)(C)C2 [Compound 183]
A) 300 to 1000 nM

Q) Please give the measured IC50 for this compound: CCc1cccc(CC)c1-n1c(C(C)C)c(C(=O)O)cc(-c2nc(-c3ccc(Cl)cc3)cs2)c1=O [Compound 98]
A) 5000 to 20000 nM
